Where do these numbers come from? They come from patent US20150353495A1.

Recorded IC50 for the following compounds
- experimental target: JAK2 (Homo sapiens, UniProt O60674)
- Construct: 5 μl of catalytic domain recombinant Kinase enzyme+Tyr peptide substrate (Invitrogen, CA)
- Sequence (O60674 849-1124 limits assumed): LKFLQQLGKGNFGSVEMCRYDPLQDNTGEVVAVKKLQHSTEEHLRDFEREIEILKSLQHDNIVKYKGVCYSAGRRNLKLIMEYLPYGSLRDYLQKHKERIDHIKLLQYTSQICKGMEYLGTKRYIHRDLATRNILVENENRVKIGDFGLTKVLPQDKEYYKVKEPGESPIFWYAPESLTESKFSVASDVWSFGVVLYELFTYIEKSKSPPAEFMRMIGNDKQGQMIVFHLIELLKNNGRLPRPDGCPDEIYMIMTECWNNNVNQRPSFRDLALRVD
- assay name: Z'-LYTE kinase assay JAK2

entry smiles | IC50
Cc1cc(Nc2cc(NCc3cccc(F)c3F)c(C(N)=O)cn2)ccc1C(=O)N1CCC1 | 10 to 100 nM
CC(C)[C@H](C)Nc1cc(Nc2ccc(C3CCOCC3)cc2)ncc1C(N)=O | 100 to 1000 nM

Prompt line: Bench note: what IC50 did "NC(=O)c1cnc(Nc2cccc(C(=O)N3CCC3)c2)cc1NCc1ccccc1" show?
Response line: 100 to 1000 nM

Prompt line: Bench note: what IC50 did "CC(=O)N1CCN(c2ccc(Nc3cc(NC4CCCC4)c(C(N)=O)cn3)cc2)CC1" show?
Response line: 100 to 1000 nM

Prompt line: Bench note: what IC50 did "NC(=O)c1cnc(Nc2cccc(N3CCOCC3)c2)cc1NCc1cccc(F)c1" show?
Response line: 10 to 100 nM

Prompt line: Bench note: what IC50 did "COc1ccc(Nc2cc(NCc3ccccc3)c(C(N)=O)cn2)cc1OC" show?
Response line: 100 to 1000 nM

Prompt line: Bench note: what IC50 did "CS(=O)(=O)Nc1cccc(Nc2cc(NCc3ccccc3)c(C(N)=O)cn2)c1" show?
Response line: 100 to 1000 nM

Prompt line: Bench note: what IC50 did "NC(=O)c1cnc(Nc2cc(F)cc(F)c2)cc1NCc1cccc2[nH]ccc12" show?
Response line: > 1000 nM

---

- experimental target: JAK3 (Homo sapiens)
- Construct: 5 μl of catalytic domain recombinant Kinase enzyme+Tyr peptide substrate (Invitrogen, CA)
- Sequence (P52333 822-1111 limits assumed): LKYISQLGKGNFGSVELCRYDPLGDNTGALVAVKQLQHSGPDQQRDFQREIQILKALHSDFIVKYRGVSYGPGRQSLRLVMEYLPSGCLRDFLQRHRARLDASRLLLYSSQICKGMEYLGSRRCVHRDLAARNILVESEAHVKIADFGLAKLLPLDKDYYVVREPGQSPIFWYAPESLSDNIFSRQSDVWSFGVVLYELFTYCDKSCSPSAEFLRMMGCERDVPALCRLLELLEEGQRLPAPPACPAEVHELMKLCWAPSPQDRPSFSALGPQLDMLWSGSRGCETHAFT
- assay name: Z'-LYTE kinase assay JAK3
endpoint: IC50

entry smiles | experimental target | assay result
CCC(=O)N1CCC(c2ccc(Nc3cc(NCc4c(F)cccc4F)c(C(N)=O)cn3)cc2)CC1 | JAK3 (Homo sapiens) | 1 to 10 nM
COc1ccc(Nc2cc(NCc3cccc4ccn(C)c34)c(C(N)=O)cn2)cc1 | JAK3 (Homo sapiens) | 100 to 1000 nM

Prompt line: Bench note: what IC50 did "CC(=O)N1CC(c2ccc(Nc3cc(NCc4cccc5ccsc45)c(C(N)=O)cn3)cc2)C1" show?
Response line: 1 to 10 nM

Prompt line: Bench note: what IC50 did "COc1ccc(Nc2cc(NC[C@H]3CCCN(S(=O)(=O)C4CC4)C3)c(C(N)=O)cn2)cc1" show?
Response line: 100 to 1000 nM

---

- experimental target: JAK1 (Homo sapiens)
- Construct: 5 μl of catalytic domain recombinant Kinase enzyme+Tyr peptide substrate (Invitrogen, CA)
- Sequence (P23458 875-1153 limits assumed): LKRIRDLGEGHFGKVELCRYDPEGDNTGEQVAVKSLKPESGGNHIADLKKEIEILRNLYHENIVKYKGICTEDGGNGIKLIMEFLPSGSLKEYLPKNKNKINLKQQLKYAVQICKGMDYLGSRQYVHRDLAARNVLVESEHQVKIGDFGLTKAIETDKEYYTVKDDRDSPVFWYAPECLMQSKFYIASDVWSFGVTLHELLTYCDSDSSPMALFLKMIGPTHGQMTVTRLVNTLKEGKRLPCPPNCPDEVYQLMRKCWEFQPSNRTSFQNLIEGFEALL
- assay name: Z'-LYTE kinase assay JAK1
pIC50: −log10 of the molar value.
endpoint: pIC50

Prompt line: Bench note: what pIC50 did "NC(=O)c1cnc(Nc2ccc(C3CCN(C(=O)C4CCOCC4)CC3)cc2)cc1NCc1ccccc1F" show?
Response line: 6.00 to 7.00

Prompt line: Bench note: what pIC50 did "Cc1cc(Nc2cc(NCc3cccc4cc[nH]c34)c(C(N)=O)cn2)ccc1C(=O)N1CCC1" show?
Response line: < 6.00

Prompt line: Bench note: what pIC50 did "CC(C)N1CCC(c2ccc(Nc3cc(NCc4ccccc4F)c(C(N)=O)cn3)cc2)CC1" show?
Response line: 6.00 to 7.00
